- run_description: protein stability index of a GFP-peptide fusion (yeast GPS) (PSI 1-4); higher = more stable; sorted into four equal gates, so the index is relative within each strain
- test_context: doa10∆
measured_quantity: protein stability index
In your answer, state the number alone without any accompanying words.

Known results for sequences:
- sequence: "KSGIPEFTPADPNLSFE [SSN2]"
  protein stability index: 2.96
- sequence: "TESNELIQKLQNSANNN [IRR1]"
  protein stability index: 2.93

I would be grateful if you could share the reported protein stability index for NLKGRPYTGWVDSKTKE [FAS2] .
3.03

###

The entries below come with measured protein stability index values attached.
- run_description: protein stability index of a GFP-peptide fusion (yeast GPS) (PSI 1-4); higher = more stable; sorted into four equal gates, so the index is relative within each strain
- test_context: ubr1∆
Please reply with the value in numeric form only.

Some sequences with known protein stability index results, for comparison:
- sequence: "DESSGTSRIDEEKPGLI [SMC4]"
  protein stability index: 3.08
- sequence: "IVFDNTDKSNSPIGFTN [SMC2]"
  protein stability index: 2.96
- sequence: "DKDSEELDSKTRKILEI [MED4]"
  protein stability index: 2.98
- sequence: "DISLKADLERFFLSIYF [YJL039C/NUP192]"
  protein stability index: 2.94
- sequence: "SPMINSTSSGKVSYAVK [SNM1]"
  protein stability index: 2.93

# input sequence: LQGDLTFTKKCLENARS [SIR4] ; wanted: its protein stability index
2.96

###

- run_description: protein stability index of a GFP-peptide fusion (yeast GPS) (PSI 1-4); higher = more stable; sorted into four equal gates, so the index is relative within each strain
- test_context: san1∆
The sequences listed here are annotated with their protein stability index.
Just the number, please.

Here's what some known entries look like.
- sequence: "LSEIESLDEILLPANLL [SRP68]"
  measured_quantity: "protein stability index"
  reading: 3.02
- sequence: "EDETVKVAQLRQTGPAK [NSL1]"
  measured_quantity: "protein stability index"
  reading: 3.08
- sequence: "KVESQETLNDTIERSLI [YCS4]"
  measured_quantity: "protein stability index"
  reading: 2.96
- sequence: "SEINEILARNDEEMAVL [SNF2]"
  measured_quantity: "protein stability index"
  reading: 3
- sequence: "GLKYALATGNWGEQKKA [RPB2]"
  measured_quantity: "protein stability index"
  reading: 3.01
- sequence: "RKRKCGHTNQLRPKKKL [RPL40A]"
  measured_quantity: "protein stability index"
  reading: 3.02
- sequence: "LHQYYGDDESKIPAVEY [FAS1]"
  measured_quantity: "protein stability index"
  reading: 2.96
- sequence: "RGNTKIHSMNENPTPEK [SIR3]"
  measured_quantity: "protein stability index"
  reading: 3.08

Recorded protein stability index for KLSQYVQEMALGGPITK [FAS2] , please?
2.96

Same for DAAAEEEKEEEAAEESD [RPP1B]
3.04

###

- run_description: protein stability index of a GFP-peptide fusion (yeast GPS) (PSI 1-4); higher = more stable; sorted into four equal gates, so the index is relative within each strain
- test_context: san1∆
Lab note: compare protein stability index against 2. Equal or greater, write MET. Smaller, write NOT MET.

Please review the entries below; each comes with its answer.
- sequence: "LFAFNGVARNFHFAIEQ [SIN4]"
  class_name: "MET"
- sequence: "MKYLAAYLLLNAAGNTP [RPP2A]"
  class_name: "NOT MET"
- sequence: "STSNALKVLSGDEGYNE [SNF12]"
  class_name: "MET"
- sequence: "RATPATLTELKDALSNS [SRB2]"
  class_name: "MET"

Could you now consider this next sequence?
Please tell me: is the sequence ITVTAKQQPTMQANKLD [SWI3] at or over 2 in terms of protein stability index?
MET

###

- run_description: protein stability index of a GFP-peptide fusion (yeast GPS) (PSI 1-4); higher = more stable; sorted into four equal gates, so the index is relative within each strain
- test_context: san1∆
# protein stability index per record follows
Keep it simple and answer with nothing but the number.

These recorded examples may help you get a feel for the data.
- sequence: "QDKEKIDNLKDTLKENA [ITC1]"
  protein stability index: 3.02
- sequence: "KEAAAIAEGKSKQDASP [RPL8B]"
  protein stability index: 2.99
- sequence: "MESEEVPLTKRYQHLEK [PCI8]"
  protein stability index: 2.92
- sequence: "THPHAADGSSYMEQGNN [SKI6]"
  protein stability index: 3.02
- sequence: "FQALDSEETQFKYVEDR [ITC1]"
  protein stability index: 3.06

Find the recorded protein stability index belonging to HEIITVGPHFKQANNFL [RPL7A] and report it.
2.98

What do you get for FKQAKERVMKNKVEENL [RPT2] ?
3

###

- run_description: protein stability index of a GFP-peptide fusion (yeast GPS) (PSI 1-4); higher = more stable; sorted into four equal gates, so the index is relative within each strain
- test_context: doa10∆
measured_quantity: protein stability index

Some solved entries appear below for comparison.
- sequence: "KKLNKNKKLIKKLSKKY [RPL1A]"
  protein stability index: 3.78
- sequence: "RISEKSVRKFLEIALFK [RPO31]"
  protein stability index: 1.93
- sequence: "NSNSNQQSTDADEDDED [RPT1]"
  protein stability index: 2.32
- sequence: "KLITTYISLLKLQGLYE [YDL116W/NUP84]"
  protein stability index: 2.23
- sequence: "VIPSYSKWFNLEKIHSI [SWI3]"
  protein stability index: 1.69
- sequence: "PEEATTIFSVMVEWLES [PRP8]"
  protein stability index: 1.76

Can you share its protein stability index? I mean this sequence: KKPSPQTIPIQIYGFEG [YGR119C/NUP57]
2.61

Repeat with TSMTGDANLLEEGETSR [SWI3]
3.2

Then what about the sequence GESTVESEKLVTPEDVM [RPC82] ?
3.15

###

- run_description: protein stability index of a GFP-peptide fusion (yeast GPS) (PSI 1-4); higher = more stable; sorted into four equal gates, so the index is relative within each strain
- test_context: doa10∆
measured_quantity: protein stability index
Format: numeric value only, no unit, no commentary.

Reference set, count: 3
- sequence: "SRRFKNGFQTGSASKAS [RPL37A]"
  protein stability index: 2.76
- sequence: "ERLHELKKLQSDIESAN [SMC1]"
  protein stability index: 2.99
- sequence: "QRDFRKHGAVHLSTYLK [RPL21A]"
  protein stability index: 2.6

Requested read-out: protein stability index. Entry: VGFLVQLDLTGIFLHGK [PRP8]
2.17

For ASITGTGSNDRCIGDSD [YMR129W/POM152] then?
3.11

###

- run_description: protein stability index of a GFP-peptide fusion (yeast GPS) (PSI 1-4); higher = more stable; sorted into four equal gates, so the index is relative within each strain
- test_context: pdr5∆
Use Met when the recorded protein stability index is no lower than 3; use Not met when it is lower.

Illustrative cases are given below, each with its answer.
- sequence: "IASDGSECIVSIKSKVV [RRP42]"
  class_name: "Met"
- sequence: "INGWELTKAQKYLDQVL [RPL17B]"
  class_name: "Not met"
- sequence: "QQQQQQQQQQQQQQQQH [GAL11]"
  class_name: "Not met"

Continue with the next sequence.
Reported protein stability index at or above 3? VQKQTRAGQRTRFKAVV [RPS2]
Met

###

- run_description: protein stability index of a GFP-peptide fusion (yeast GPS) (PSI 1-4); higher = more stable; sorted into four equal gates, so the index is relative within each strain
- test_context: ubr1∆
measured_quantity: protein stability index
Write the number on its own, no unit after it.

Use these answered entries as a reference point.
- sequence: "NKTDAQAPTTGFSFGSQ [YJL041W/NSP1]"
  protein stability index: 3.07
- sequence: "SDERAKLELINRYAYVL [LRP1]"
  protein stability index: 2.93

Quick check: protein stability index of TGETYQRFVGHKSDVMS [ASC1] ?
2.94

###

- run_description: protein stability index of a GFP-peptide fusion (yeast GPS) (PSI 1-4); higher = more stable; sorted into four equal gates, so the index is relative within each strain
- test_context: san1∆
measured_quantity: protein stability index
Lab note: jot down the number only; don't add units.

- sequence: "YLERTLDTFIKIDGNPD [PRE5]"
  protein stability index: 3.04
- sequence: "KCLNYRNVNWIERLTKR [ITC1]"
  protein stability index: 2.96
- sequence: "AETLCFTVNVLYPDSSS [RPN3]"
  protein stability index: 2.97
- sequence: "FITAKDKYKLYPVRIPR [YJR042W/NUP85]"
  protein stability index: 3.06
- sequence: "NVVPYHRNTSDYYYEDA [SWI1]"
  protein stability index: 3.03
- sequence: "IGAVYSGMGPDYRVLVD [PRE8]"
  protein stability index: 2.92
- sequence: "EIALKGLESLLNIGLGA [YCS4]"
  protein stability index: 3.03
- sequence: "SDAEEEEGEYKNAANTE [ISW2]"
  protein stability index: 3

Which protein stability index value belongs to FEQDSHLRYQPDGVVVH [SNF6] ?
3.07

Cool, now KTQQNEKSENGENDDDT [RPN3]
2.92

// repeat for RQFVSNVRSVIRSSRSR [RPP1] and report
2.91

Numbers sourced from the supplement of paper PMC9732359.
